target: human mAChR M4 (Homo sapiens, UniProt P08173); experiment: mAChR M4 cell-based functional assay: calcium mobilization (Fluo-4, FDSS), potentiation of EC20 acetylcholine response in hM4-Gqi5 CHO-K1 cells; conditions: potentiation of EC20 acetylcholine response, calcium mobilization, human M4
Sequence (P08173 whole entry): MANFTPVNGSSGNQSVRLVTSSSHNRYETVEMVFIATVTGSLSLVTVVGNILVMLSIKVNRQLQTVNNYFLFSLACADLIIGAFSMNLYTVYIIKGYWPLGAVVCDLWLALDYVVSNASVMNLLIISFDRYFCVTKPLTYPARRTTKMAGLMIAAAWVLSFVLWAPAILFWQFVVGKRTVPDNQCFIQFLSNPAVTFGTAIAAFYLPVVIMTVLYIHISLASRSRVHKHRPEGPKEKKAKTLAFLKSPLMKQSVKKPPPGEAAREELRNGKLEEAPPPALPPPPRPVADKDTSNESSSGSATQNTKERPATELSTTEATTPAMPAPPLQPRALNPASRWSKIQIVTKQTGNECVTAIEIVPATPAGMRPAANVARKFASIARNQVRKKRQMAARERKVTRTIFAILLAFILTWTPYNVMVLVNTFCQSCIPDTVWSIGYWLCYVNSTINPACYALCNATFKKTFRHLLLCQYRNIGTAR
pEC50: −log10 of the molar value.
ENDPOINT: pEC50

{"MOLECULE": "Cc1cc(N)ncc1-c1cnc2c(c1)CN(c1nn3c(=O)ccnc3cc1C)CC2 [Compound 1-404]", "pEC50": 6.78}
{"MOLECULE": "CCc1ccccc1-c1cnc2c(c1)CN(c1nn3c(=O)ccnc3c(C)c1C)CC2 [Compound 1-342]", "pEC50": 6.69}
{"MOLECULE": "Cc1cc2nc(C(F)F)cc(=O)n2nc1N1CCc2ncc(-c3cn(C)nc3C)cc2C1 [Compound 1-34]", "pEC50": 7.14}
{"MOLECULE": "Cc1cc2nccc(=O)n2nc1N1CCc2ncc(N3CC(C)Oc4ccccc43)cc2C1 (centres unmarked) [Compound 2-57]", "pEC50": 7.70}

A. Cc1cc(=O)n2nc(N3CCc4ncc(-c5cncc(Cl)c5)cc4C3)c(C)c(C)c2n1 [Compound 1-123]
B. Cc1cc(=O)n2nc(N3CCc4ncc(Nc5cccnc5F)cc4C3)c(C)cc2n1 [Compound 2-19]
C. Cc1cc2nccc(=O)n2nc1N1CCc2ncc(-c3ccc(F)nc3F)cc2C1 [Compound 1-318]
D. Cc1cc(=O)n2nc(N3CCc4ncc(-c5ccc(C(F)(F)F)nc5)cc4C3)c(C)cc2n1 [Compound 1-73]
[ask] Returns the items ordered by pEC50, from maximum to minimum. Answer by naming the labels in the order asked.
[reply] B, D, A, C
(B: 7.22, D: 6.34, A: 6.07, C: 5.62)

Value source: patent US20250101041A1
